Target: ΔIBB-h-importin-α1 (Homo sapiens, UniProt P52292, DEL11-54)
Construct: IBB domain-truncated h-importin-α1 (Δ-h-importin-α1) (1–10, 55–529); GST (N, cleaved yes); His6 (C); made in house; host or cells: E. coli BL21 (DE3) Codonplus-RIL
Assay: ITC binding of NLS peptides to ΔIBB-h-importin-α1
No end group written: not given here.
Result type: Kd (nM)

[
  {
    "Sequence data": "KRPAATKKAGQAKKKK [nucleoplasmin NLS]",
    "Result type": "Kd",
    "Unit name": "nM",
    "Measured": 140
  }
]
